# Assay info: recombinant barcode read abundance after kanamycin selection (control-corrected) (log10(CPM+1)); higher = more efficient recombination; sequences stand for … in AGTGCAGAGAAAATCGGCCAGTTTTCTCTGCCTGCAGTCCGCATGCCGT…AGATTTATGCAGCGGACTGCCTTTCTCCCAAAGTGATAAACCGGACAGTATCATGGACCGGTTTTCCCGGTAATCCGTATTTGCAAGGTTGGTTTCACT; site = the 11-nt target;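 note: IS621 recombinase and bridge RNA in Escherichia coli cells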
Entries and their recombinant barcode read abundance (log10) values follow.
I only need the number, thanks.

Answered cases to consult:
**Q:** What recombinant barcode read abundance (log10) value was documented for this sequence, ATGGACCCTTGGGTTCTAACCTGTTGCTC (site ATGGACCCTGA) ?
**A:** 1.93

**Q:** And CCTCGCGCTTGGGTTCTAACCTGTTGCCT (site CCTCGCGCTAG) ?
**A:** 0.354

**Q:** And TCTAGATCTTGGGTTCTAACCTGTTGCCT (site TCTAGACCTAG) ?
**A:** 0.0764

Continuing:
**Q:** What recombinant barcode read abundance (log10) value was documented for this sequence, GCCTGCCCTTGGGTTCTAACCTGTTGCTG (site TGGGTGACTAG) ?
**A:** 0.0502

Data provenance is the supplement of paper PMC11208160.
